- Study System: Human TRPA1 expressing CHO cells (Homo sapiens, UniProt O75762)
- Construct: expressed in transfected cells; host or cells: CHO cells (under G-418 selection)
- Sequence (O75762 whole entry): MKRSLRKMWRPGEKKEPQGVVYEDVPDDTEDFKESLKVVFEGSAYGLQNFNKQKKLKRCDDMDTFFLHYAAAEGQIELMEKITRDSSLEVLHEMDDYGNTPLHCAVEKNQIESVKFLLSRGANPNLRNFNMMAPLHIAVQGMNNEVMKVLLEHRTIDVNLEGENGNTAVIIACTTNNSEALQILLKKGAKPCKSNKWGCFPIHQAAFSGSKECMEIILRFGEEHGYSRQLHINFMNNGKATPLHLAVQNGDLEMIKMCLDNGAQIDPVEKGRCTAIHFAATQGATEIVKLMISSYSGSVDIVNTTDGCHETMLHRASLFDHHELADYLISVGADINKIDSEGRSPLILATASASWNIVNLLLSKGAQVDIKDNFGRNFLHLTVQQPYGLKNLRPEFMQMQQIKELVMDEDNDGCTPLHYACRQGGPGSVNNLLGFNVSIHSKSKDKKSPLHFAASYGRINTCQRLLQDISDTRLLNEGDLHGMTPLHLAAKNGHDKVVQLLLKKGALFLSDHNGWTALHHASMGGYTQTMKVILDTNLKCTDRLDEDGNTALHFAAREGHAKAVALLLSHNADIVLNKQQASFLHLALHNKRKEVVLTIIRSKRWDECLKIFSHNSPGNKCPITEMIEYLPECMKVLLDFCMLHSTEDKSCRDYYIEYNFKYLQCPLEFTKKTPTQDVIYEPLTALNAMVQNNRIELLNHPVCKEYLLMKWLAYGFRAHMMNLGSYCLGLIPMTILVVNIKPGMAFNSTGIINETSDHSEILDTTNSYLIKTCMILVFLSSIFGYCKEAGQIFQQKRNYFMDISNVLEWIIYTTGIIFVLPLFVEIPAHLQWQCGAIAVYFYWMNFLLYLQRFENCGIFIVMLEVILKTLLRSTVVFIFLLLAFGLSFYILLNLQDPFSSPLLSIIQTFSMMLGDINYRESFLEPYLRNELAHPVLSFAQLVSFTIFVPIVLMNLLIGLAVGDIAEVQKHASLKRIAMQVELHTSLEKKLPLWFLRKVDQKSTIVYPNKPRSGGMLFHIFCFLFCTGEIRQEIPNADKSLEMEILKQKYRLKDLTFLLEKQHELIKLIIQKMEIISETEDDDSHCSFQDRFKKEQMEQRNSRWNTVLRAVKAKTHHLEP
- Assay Explanation: 45Calcium uptake assay: inhibition of AITC induced cellular uptake of radioactive calcium
- Format: cell-based
- Assay Context: 10.0 μM test compound; AITC 30 μM; human TRPA1 CHO cells; read-out: Percentage inhibition at 10.0 μM
Measured Property: inhibition at 10 µM (%)

**Q:** Give the measured inhibition at 10 µM of Cn1c(=O)c2c(CC(=O)Nc3nc(-c4ccc(Cl)c(Cl)c4)cs3)cccc2n(C)c1=O [Example 47] .
**A:** 99.2

**Q:** # get_value(readout='inhibition at 10 µM', item= Cn1c(=O)c2c(CC(=O)Nc3nc(-c4ccc(OCC(F)(F)F)c(F)c4)cs3)cccc2n(C)c1=O [Example 59] )
**A:** 100

**Q:** Field request: inhibition at 10 µM | item: Cc1sc(NC(=O)Cc2cccc3c2c(=O)n(C)c(=O)n3C)nc1-c1ccc(Cl)cc1 [Example 30]
**A:** 91

**Q:** Which value of inhibition at 10 µM has been reported for Cn1c(=O)c2c(CC(=O)Nc3cccc(-c4ccc(C(F)(F)F)cc4)n3)cccc2n(C)c1=O [Example 6] in the records?
**A:** 88.2

**Q:** GET /values?readout=inhibition at 10 µM&item= Cn1c(=O)c2c(CC(=O)Nc3nc(-c4cccc(OC(F)(F)F)c4)cs3)cccc2n(C)c1=O [Example 16]
**A:** 99.7

[P] Cn1c(=O)c2c(CC(=O)Nc3nc(-c4ccc(Cl)cc4F)cs3)cccc2n(C)c1=O [Example 51]
[Q] CCCn1c(=O)c2c(CC(=O)Nc3nc(-c4cccc(C(F)(F)F)c4)cs3)cccc2n(CCC)c1=O [Example 26]
**Q:** Two entries are listed, P and Q . Which one carries the higher inhibition at 10 µM? Your answer should be the label attached to the chosen record.
**A:** P
(P: 99.3%, Q: 5.39%)
